Attribute: pest or weed control at 140 g/ha
- Test system: HELAN = sunflower (Helainthus annuus)
- Test: General postemergence herbicidal activity, sunflower
- Type: in vivo
- Assay setup: post-emergence, 336 h; post-emergent, 140 g ai/ha, visual score after 14 days (0 no injury, 100 complete kill)
Quick note: give the figure in %, leave out the unit.

Nc1nc(-c2ccc3c(c2F)OCO3)nc(C(=O)O)c1Cl 90
Nc1nc(-c2ccc(Cl)c(C(F)F)c2F)nc(C(=O)O)c1Cl 90

The molecule listed as COC(=O)c1nc(-c2ccc(Cl)c(N(C)C)c2F)nc(N)c1Cl shows pest or weed control at 140 g/ha equal to 100

###

- Tested on: CHEAL = lambsquarter (Chenopodium album)
- Test: General preemergence herbicidal activity, lambsquarter
- Type: in vivo
- Assay setup: Chenopodium album, pre-emergence, 480 h; pre-emergent, 140 g ai/ha, visual score after 20-22 days
Readout label: pest or weed control at 140 g/ha

The molecule listed as COC(=O)c1nc(-c2ccc(Cl)c(C)c2F)nc(N)c1Cl [Compound 11] shows pest or weed control at 140 g/ha equal to 60%

The molecule listed as COC(=O)c1nc(-c2ccc(Cl)c(C(F)F)c2F)nc(N)c1Cl [Compound 7] shows pest or weed control at 140 g/ha equal to 70%

The molecule listed as COC(=O)c1nc(-c2c(F)cc(Cl)c(OC)c2F)nc(N)c1Cl [Compound 2] shows pest or weed control at 140 g/ha equal to 90%

The molecule listed as COC(=O)c1nc(-c2ccc(Cl)c(OC)c2Cl)nc(N)c1Cl [Compound 6] shows pest or weed control at 140 g/ha equal to 100%

The molecule listed as COc1c(Cl)ccc(-c2nc(N)c(Cl)c(C(=O)O)n2)c1Cl [Compound 18] shows pest or weed control at 140 g/ha equal to 100%

The molecule listed as COc1c(Cl)ccc(-c2nc(N)c(Cl)c(C(=O)O)n2)c1F [Compound 15] shows pest or weed control at 140 g/ha equal to 100%

###

Attribute: pest or weed control at 140 g/ha
- System: HELAN = sunflower (Helainthus annuus)
- Test: General postemergence herbicidal activity, sunflower
- Type: in vivo
- Assay setup: post-emergence, 336 h; post-emergent, 140 g ai/ha, visual score after 14 days (0 no injury, 100 complete kill)
Quick note: give the figure in %, leave out the unit.

Take a look at these entries with their results.
Nc1nc(-c2ccc(Cl)c(OCC(F)F)c2F)nc(C(=O)O)c1Cl 80
CCOc1c(Cl)ccc(-c2nc(N)c(Cl)c(C(=O)OC)n2)c1F 100
COC(=O)c1nc(-c2ccc(Cl)c(SC(F)(F)F)c2F)nc(N)c1Cl 90
COc1c(Cl)ccc(-c2nc(N)c(Cl)c(C(=O)O)n2)c1Cl 95
COC(=O)c1nc(-c2ccc(Cl)c(OCC(F)F)c2F)nc(N)c1Cl 80

The compound listed as COC(=O)c1nc(-c2ccc(Cl)c(OC)c2F)nc(N)c1Cl shows pest or weed control at 140 g/ha equal to 100

###

Attribute: melting point

Take a look at these entries with their results.
CCOc1c(Cl)ccc(-c2nc(N)c(Cl)c(C(=O)O)n2)c1F 132 to 134 °C
COc1c(Cl)ccc(-c2nc(N)c(Cl)c(C(=O)O)n2)c1F 172 to 173 °C
COc1c(Cl)ccc(-c2nc(N)c(Br)c(C(=O)O)n2)c1F 173 to 175 °C

The compound listed as COC(=O)c1nc(-c2ccc(Cl)c(C)c2F)nc(N)c1Cl shows melting point equal to 166 to 168 °C

The compound listed as COC(=O)c1nc(-c2ccc(Cl)c(N(C)C)c2F)nc(N)c1Cl shows melting point equal to 143 to 144 °C

The compound listed as COC(=O)c1nc(-c2ccc(Cl)c(SC(F)(F)F)c2F)nc(N)c1Cl shows melting point equal to 167 to 169 °C

The compound listed as Cc1c(F)sc(-c2nc(N)c(Cl)c(C(=O)O)n2)c1Cl shows melting point equal to 139 to 141 °C

The compound listed as CN(C)c1c(Cl)ccc(-c2nc(N)c(Cl)c(C(=O)O)n2)c1F shows melting point equal to 181 to 183 °C

The compound listed as COC(=O)c1nc(-c2ccc(Cl)c(OCC(F)F)c2F)nc(N)c1Cl shows melting point equal to 139 to 141 °C

The compound listed as COC(=O)c1nc(-c2ccc(Cl)c(OC)c2F)nc(N)c1F shows melting point equal to 200 to 202 °C

The compound listed as COC(=O)c1nc(-c2ccc(Cl)c(C(F)F)c2F)nc(N)c1Cl shows melting point equal to 155 to 157 °C

The compound listed as Nc1nc(-c2ccc(Cl)c(C(F)F)c2F)nc(C(=O)O)c1Cl shows melting point equal to 166 to 168 °C

The compound listed as Cc1c(Cl)ccc(-c2nc(N)c(Cl)c(C(=O)O)n2)c1F shows melting point equal to 210 to 212 °C
